- MEASURED_ON: UniProt:Q9UBT2
- Sequence (Q9UBT2 whole entry): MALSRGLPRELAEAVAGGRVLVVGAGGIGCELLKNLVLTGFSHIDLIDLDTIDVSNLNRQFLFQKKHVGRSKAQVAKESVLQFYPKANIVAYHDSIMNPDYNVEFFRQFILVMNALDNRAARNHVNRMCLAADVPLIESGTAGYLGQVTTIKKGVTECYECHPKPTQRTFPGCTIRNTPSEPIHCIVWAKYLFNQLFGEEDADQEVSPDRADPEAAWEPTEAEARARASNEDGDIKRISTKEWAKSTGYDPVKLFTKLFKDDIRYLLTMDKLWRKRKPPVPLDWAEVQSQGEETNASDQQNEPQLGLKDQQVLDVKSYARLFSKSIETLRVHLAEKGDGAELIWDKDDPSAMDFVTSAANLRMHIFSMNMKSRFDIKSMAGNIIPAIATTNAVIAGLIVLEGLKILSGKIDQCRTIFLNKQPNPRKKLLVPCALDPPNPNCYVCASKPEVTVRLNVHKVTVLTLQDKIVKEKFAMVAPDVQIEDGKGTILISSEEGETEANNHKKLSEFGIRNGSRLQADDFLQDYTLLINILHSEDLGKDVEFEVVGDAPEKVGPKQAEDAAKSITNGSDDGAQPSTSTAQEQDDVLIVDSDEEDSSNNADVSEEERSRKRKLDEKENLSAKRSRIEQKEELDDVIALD
- Sequence (Q9UBE0 whole entry partner): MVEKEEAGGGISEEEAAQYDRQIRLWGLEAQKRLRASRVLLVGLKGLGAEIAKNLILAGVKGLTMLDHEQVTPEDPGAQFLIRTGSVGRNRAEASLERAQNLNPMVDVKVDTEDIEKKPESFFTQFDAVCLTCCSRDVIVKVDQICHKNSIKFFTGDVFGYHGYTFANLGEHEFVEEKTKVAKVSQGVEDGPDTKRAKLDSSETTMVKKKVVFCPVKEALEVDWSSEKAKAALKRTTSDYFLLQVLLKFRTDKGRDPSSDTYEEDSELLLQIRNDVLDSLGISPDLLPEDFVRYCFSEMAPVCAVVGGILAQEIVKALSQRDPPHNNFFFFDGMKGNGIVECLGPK
- ASSAY_COMMENT: In vitro inhibitory activity assay against SAE (SUMO-2/3 immunofluorescence in HCT116 cells)
- Format: cell-based
- CONDITIONS_USED: 6 h incubation, class symbols, read-out: SUMO IF IC50
- Protocol: HCT116 cells were seeded into a 96-well black transparent bottom plate at about 20000/well with 90 μL per well. The cells were incubated at 37° C. overnight for 24 h. The test compounds were 10-fold diluted to give a final concentration, and 10 μL of the diluted compounds was added to each well of the cell culture plate. The mixture was incubated at 37° C. for 6 h. […] The fluorescence signal of the sample was detected and compared to the DMSO group, and the inhibition rate and IC50 were calculated.
pIC50: −log10 of the molar value.
# pIC50 values compiled below

Some entries whose results are on file:
Please look up its pIC50: CN1CCc2ccc(Cl)cc2[C@]12CCCc1sc(C(=O)c3cncnc3N[C@@H]3C[C@H](COS(N)(=O)=O)[C@@H](O)C3)cc12 < 6.70

# repeat for Cc1ccc2c(c1)C1(CCCc3sc(C(=O)c4cncnc4N[C@@H]4C[C@H](COS(N)(=O)=O)[C@@H](O)C4)cc31)NCC2 (stereo partly drawn) 6.70 to 7.30

Others:
Please look up its pIC50: CN1Cc2sc(C(=O)c3cncnc3N[C@@H]3C[C@H](COS(N)(=O)=O)[C@@H](O)C3)cc2[C@@]2(C1)OCCc1ccc(F)cc12 < 6.70
